- System: K4 kissing-loop RNA reporter
- Procedure summary: apparent KD of K4 kissing-loop reporter; higher = weaker reporter binding
- Condition label: Eterna round: R107; input ligand: tryptophan 2.4 mM
Observable: apparent KD of K4 kissing-loop reporter (nM)
Numbers only, in nM.

// known answers, use as guide
Q) Name the reported apparent KD of K4 kissing-loop reporter value associated with the sequence UGAUAGGACAGAAGGAGCGGAAGUGAUGUUUCCAAAAGAUAUGAUCGACAAAGUCGAUUUUUCCAGGUAGGUCGCUGUCCUAUCU [KL-XARG-B19]
A) 66.6

Q) Name the reported apparent KD of K4 kissing-loop reporter value associated with the sequence GGCACUACAGCGGCCGCCACUGUUUAGUCCAUCGCUUGCGAGUGAUGUUCGUAGGUACUGCAGCUCAGGACCGGGCUGUCCUUAC [theeternabot_sameState_KL_Trp_B_34]
A) 388

Q) Name the reported apparent KD of K4 kissing-loop reporter value associated with the sequence UAUCUAUGCUCGGCCGCCACUAGGACCGGGUAGUCUCUAGUGAUGUUAGUCUCUACGGCCGCCACUAGGACCGGGAGUGUAGAUA [KL-SSTryp-B16 #DoubleAptamer]
A) 82.5

Q) Name the reported apparent KD of K4 kissing-loop reporter value associated with the sequence CGAUAGGGAAGUCGAUUGCUCACUGGUAAACGAGGACCGGUACGGCCGCCACUCGGGUCCAGUGAUGUUGGACUUUGUGGCGGGC [Edladian]
A) 109

Q) Name the reported apparent KD of K4 kissing-loop reporter value associated with the sequence UACAAACGUAGUGAUGUUACGUACUCUGAUACCAGACAACUCUAAGUCCCUUGGCAGCAGUCACUUAGCUUAUUAUUUUCUCAAA [JR_Nu_ExcTheophyA_Sub026]
A) 103

Further cases:
Q) Name the reported apparent KD of K4 kissing-loop reporter value associated with the sequence AAUUUAUAUUUAUUCUUUAAAUGUUCAGAAGGAGCGUGAAUUAUCACAGGUAGGUCGCUGAGCUAGUGAUGUUAGCUAUAUACUA [JR_ExcArginiA_Sub007]
A) 47.5

* * *

- Tested on: MS2 coat protein
- Procedure summary: apparent KD of MS2 coat protein, switch ON state; designed switch direction (-1 OFF switch, 1 ON switch): 1; higher = weaker reporter binding
- Condition label: FMN input: 0 or 200 uM; Eterna round: R93 (includes R88 designs)
Label 1 for high-side apparent KD of MS2 coat protein (at or above 0.07 µM) and -1 for low-side apparent KD of MS2 coat protein (below it).

Q) hey, is apparent KD of MS2 coat protein for this one >= 0.07 µM? GGAGUACAUGAGGAUCACCCAUGUUGGAACAAAGUAGGAUAUGUACAAUAUUAAAUAAAAACAGAAGGACUAAGAA [Gold Rush]
A) -1

Q) hey, is apparent KD of MS2 coat protein for this one >= 0.07 µM? AAUAAACAUGAGGAUCACCCAUGUAAUAAUAUGGGAGGAUAUACUAAAAUAAAAUAAAAUGUAGAAGGCCUAAUAA [LROPPY Same State 1 - v05_deltaG=1.05 break up the As]
A) -1

Q) hey, is apparent KD of MS2 coat protein for this one >= 0.07 µM? ACUAUACAUGAGGAUCACCCAUGUCAGGUGGGACUAGGAUAUCAUAAGCCAGAGUAAGUAUGAGAAGGAGUAGAAA [JR_SS001_Sub305]
A) 1

Further cases:
Q) hey, is apparent KD of MS2 coat protein for this one >= 0.07 µM? GUGUAUAGAAUCGAGGAUAUCCUGUAAUGCACAUGAGGAUCACCCAUGUAAGAGCGAGAAUAAUGGGAGAAGGCGAGUUAUCGGU [JR_SS002_Sub1710]
A) -1

Q) hey, is apparent KD of MS2 coat protein for this one >= 0.07 µM? AGGAAACAUGAGGAUCACCCAUGUAAAAGGUGGUUAGGAUAUGCGAAAAGAAAAAGAAAAGCAGAAGGGACAAGAA [Inspired by JR's SameStare1_sub2]
A) 1

Q) hey, is apparent KD of MS2 coat protein for this one >= 0.07 µM? AGGAAACAUGAGGAUCACCCAUGUAAAAAUAUGGGAGGAUAUACAAACAGGAAAGAGAGAGUAGAAGGCCUAAAAG [Garnet 20]
A) 1

* * *

- System: MS2 coat protein
- Procedure summary: apparent KD of MS2 coat protein; designed switch direction (-1 OFF switch, 1 ON switch): -1; higher = weaker reporter binding
- Condition label: Eterna round: R95; input ligand: FMN 200 uM
Kindly supply the reported apparent KD of MS2 coat protein values for the records listed here.
Give bare numbers, in nM.

// known answers, use as guide
Q) Name the reported apparent KD of MS2 coat protein value associated with the sequence CUCCUCAUGGCGCCUAAACACAUGAGGAUCACCCAUGUAUAGGCUUUUUGCCGUCUUAUAAUAAAACCGAGGAUGCG [Rianza] (puzzle: Sensor v3, turn-off variant 1)
A) 28.7

Q) Name the reported apparent KD of MS2 coat protein value associated with the sequence AUAAGCUUUUAAAUCCUUAACAUGAGGAUCACCCAUGUUCGUCUUAUGAUGGUCUGAUCCCUGAGGAUCGGACCGUU [JL-sv1-2.03 Brourd Mod] (puzzle: Sensor v3, turn-off variant 1)
A) 29.2

Q) Name the reported apparent KD of MS2 coat protein value associated with the sequence AGUUGGCGAGGAUAUACAUGAGGAUCACCCAUGUGAGAGAAUAAAGUGAGGAAGAAAAGUAGAAGGCGCUGACG [Mat - Exclusion 3 - Mod of Salish D7] (puzzle: Exclusion 3)
A) 61.1

Q) Name the reported apparent KD of MS2 coat protein value associated with the sequence AACAAGCUAGGAUAUACAUGAGGAUCACCCAUGUGCGACUGAUGUCCCGUGGUUGAGGGUAGAAGGAGCGAAAG [Qucelexe] (puzzle: Exclusion 3)
A) 239

Would you mind giving apparent KD of MS2 coat protein for every sequence in the list below?
1. GGUUGGCGAGGAUAUACAUGAGGAUCACCCAUGUCAGAGAAAAAAGUGAGGAAGAAAAGUAGAAGGCGCUGACG [salish99_ex3_r3_017] (puzzle: Exclusion 3)
2. GAUUAUGCGAGCUUUAGGGACAUGAGGAUCACCCAUGUUCGUCUUAUUAGUCUGGGUACACUGACAUACCUAAAUCU [JMF 71] (puzzle: Sensor v3, turn-off variant 1)
3. GAGGGACAUGAGGAUCACCCAUGUGAGGAUAUGUGAGAAGGAUUGGAGAGUGAGUGGGACAGAAGGCGCAAGGG [JR_Exclu1_Sub085] (puzzle: Exclusion 1)
4. AGAGUGUGAGGAUAUAUGGUGAAGAUGAAGAAAGAGAAGGAGUAGAAGGUACAUGAGGAUCACCCAUGUUGAGG [JR_Exclu4_Sub071] (puzzle: Exclusion 4)
5. UGAAGUAGAAACCGAUCCUACAUGAGGAUCACCCAUGUAGCAAGACGUGCACGCGAAGCUCGUCAGACUACCAGAAG [salish99_TOv1_r3_002] (puzzle: Sensor v3, turn-off variant 1)
6. UAUUCUAGAUAGGAUAUACUUUUUUUUUUUUUCGUAGAAGGAUCUACAUGAGGAUCACCCAUGUUAUCAGCAGU [JR_E6_Sub011] (puzzle: Exclusion 6)

A)
1. 199
2. 24.6
3. 95.4
4. 44.8
5. 170
6. 27.5

* * *

Kindly supply the reported apparent KD of K4 kissing-loop reporter values for the records listed here.
- Tested on: K4 kissing-loop RNA reporter;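 further: bound reporter read as fluorescence of individual clusters on recovered sequencing chips by microscopy, with normalized cluster intensities fitted with a binding model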
- Procedure summary: apparent KD of K4 kissing-loop reporter; higher = weaker reporter binding
- Condition label: Eterna round: R107; input ligand: tryptophan 2.4 mM
Give bare numbers, in nM.

// known answers, use as guide
Q) Name the reported apparent KD of K4 kissing-loop reporter value associated with the sequence GUACGCUCUCGAGUGAUGUUCGGUAAUAGUUAGGAUAUCGCUUUUGCGAGAAGGAACUGAAUGAGGAAACUCGUUCUGAGUGUAC [FMN A 18]
A) 239

Q) Name the reported apparent KD of K4 kissing-loop reporter value associated with the sequence UCGCAUUAACCGGAUACCAGCUUAGUGGGAUCUUCAAUCCGACAGAAAGUGAUGUUUUCUAGCCCUUGGCAGCCGAGAUUAUCAC [theeternabot_sameState_KL_Theo_B_50]
A) 348

Q) Name the reported apparent KD of K4 kissing-loop reporter value associated with the sequence UGCAGUGAUGUUGCGAGUGGCAGAUACGAAGGAGCGUGGUGAGACACAGGUAGGUCGCGUAUCGAAAUUGCUGUCACUAAAAUGC [#8]
A) 460

Would you mind giving apparent KD of K4 kissing-loop reporter for every sequence in the list below?
1. AAACGUUGGUCGGAUACCAGCUUGAUCGGAAACGAUCUGCUGGAGUGAUGUUCCAAGUAAAGCCCUUGGCAGCCGACCGACGAAA [MAT - Same State Theophlline B - Mod of Eli - D18]
2. AAAUAGAUCAGUCACCCAGUGAUGUUGGAAGGAGCGUGCGAAAGCACAGGUAGGUCGCCAGAAUAAAAGUGGCUGAUCAAAAUAA
3. CAGCGGAGUGAUGUUCUGCUUACUGCGGAUACCAGCUUCGCCAGAGGCCCUUGGCAGCCGGGCGGCUCAGUGAUGUUGGGUUGCU [Same State Theophylline A GF 15]

A)
[71.6, 366, 664]
